Test system: thymocytes
Assay: Peroxynitrite-stimulated thymocytes: cell viability
Format: cell-based
Settings: Thymocyte; peroxynitrite 30 μM; 30 min pretreatment 0.1 to 30 μM; measured at 6 h; mean±SEM n=3-6; read-out: Enhancement of cell viability (thymocyte)
MEASURED PROPERTY: EC50
The reply must contain the numeric value and, after it, the unit.

q: What value of EC50 has been recorded for this entry: O=C(CN1CCOCC1)Nc1ccc2[nH]c(=O)c3ccccc3c2c1
a: 400 nM

q: Moving on to O=C(CN1CCCCC1)Nc1ccc2[nH]c(=O)c3ccccc3c2c1
a: 300 nM

q: Moving on to CN(C)CC(=O)Nc1ccc2[nH]c(=O)c3ccccc3c2c1
a: 200 nM

q: Moving on to CCN(CC)CC(=O)Nc1ccc2[nH]c(=O)c3ccccc3c2c1
a: 200 nM

q: Moving on to CN1CCN(CC(=O)Nc2ccc3[nH]c(=O)c4ccccc4c3c2)CC1
a: 1300 nM
